Reported pIC50 is given for each of the following molecules.
# assay.details: Inhibition of Orai-mediated calcium entry in human Jurkat E6-1 cells after 1 hr by FLIPR assay
# Assay type: cell-based
Reminder that pIC50 is minus the log10 of a molar concentration.

// known answers, use as guide
Cc1cc(OC(F)F)ncc1-c1cnc2[nH]c(-c3c(F)cccc3Cl)cc2c1 7.19
COc1cc(C)c(-c2cnc3[nH]c(-c4c(F)cccc4Cl)cc3c2)cn1 7.15

Lookup result for Cc1nnsc1C(=O)Nc1ccc(-n2nc(C(F)(F)F)cc2C(F)(F)F)cc1 ; measured pIC50: 7.12

Lookup result for CNS(=O)(=O)c1ccc(-c2cnc3[nH]c(-c4c(F)cccc4Cl)cc3c2)c(C)c1 ; measured pIC50: 6.81

Lookup result for Fc1cccc(Cl)c1-c1cc2cc(-c3cc4c(cc3Cl)OC(F)(F)O4)cnc2[nH]1 ; measured pIC50: 6.92

Lookup result for Cc1nc2cc(-c3cnc4[nH]c(-c5c(F)cccc5Cl)cc4c3)c(Cl)cc2o1 ; measured pIC50: 7.06

Lookup result for Cn1nc(C(F)(F)F)cc1-c1cnc2[nH]c(C3CCCC3)cc2c1 ; measured pIC50: 6.59

Lookup result for CNCc1ccc(-c2cnc3[nH]c(-c4c(F)cccc4Cl)cc3c2)c(C)c1 ; measured pIC50: 5.00

Lookup result for Cn1nc(C(F)(F)F)cc1-c1cnc2[nH]c(C3CCCCC3)cc2c1 ; measured pIC50: 6.51

Lookup result for COc1cc(OC)c(-c2cnc3[nH]c(-c4c(F)cccc4Cl)cc3c2)cn1 ; measured pIC50: 6.82

Lookup result for Cc1cc(S(=O)(=O)N(C)C)ccc1-c1cnc2[nH]c(-c3c(F)cccc3Cl)cc2c1 ; measured pIC50: 6.26

Lookup result for Cc1cc(S(=O)(=O)N2CCOCC2)ccc1-c1cnc2[nH]c(-c3c(F)cccc3Cl)cc2c1 ; measured pIC50: 5.00
